Ref: ChEMBL document CHEMBL1781893

Please consider the recorded IC50 for Cholinesterase (Homo sapiens, UniProt P06276) in what follows.
Numbers only; they are read as nM.

A selection of reference data follows.
{"columns": ["LINE NOTATION", "EXPERIMENTAL SYSTEM", "MEASUREMENT UNIT", "IC50"],
 "data": [
  ["CC(C)C1=N[C@H]2CC[C@]34C[C@]35C(=O)C[C@]3(C)[C@@H]([C@H](C)N(C)CCCc6ccccc6)[C@H](O)C[C@@]3(C)[C@@H]5CC[C@H]4[C@]2(C)CS1", "Cholinesterase (Homo sapiens, UniProt P06276)", "nM", 1430],
  ["CC(C)C1=N[C@H]2CC[C@]34C[C@]35C(=O)C[C@]3(C)[C@@H]([C@H](C)N(C)CCCN6C(=O)c7ccccc7C6=O)[C@H](O)C[C@@]3(C)[C@@H]5CC[C@H]4[C@]2(C)CS1", "Cholinesterase (Homo sapiens, UniProt P06276)", "nM", 224]
]}

The reported Cholinesterase (Homo sapiens, UniProt P06276) IC50 of CC(C)C1=N[C@H]2CC[C@]34C[C@]35C(=O)C[C@]3(C)[C@@H]([C@H](C)N(C)C)[C@H](O)C[C@@]3(C)[C@@H]5CC[C@H]4[C@]2(C)CN1C is 2950

* * *

Please consider the recorded pIC50 for Acetylcholinesterase (Homo sapiens) in what follows.
Give only the number. pIC50 is defined as minus log10 of concentration in molar units.

{"columns": ["LINE NOTATION", "REPORTED MEASUREMENT"],
 "data": [
  ["C[C@@H]([C@H]1[C@H](O)C[C@@]2(C)[C@@H]3CC[C@H]4[C@]5(C)COC(C(F)(C(F)(F)F)C(F)(F)F)=N[C@H]5CC[C@@]45C[C@@]35C(=O)C[C@]12C)N(C)C", 5.52]
]}

Here is the next item to consider.
Value of pIC50 reported for the compound CC(C)C1=N[C@H]2CC[C@]34C[C@]35C(=O)C[C@]3(C)[C@@H]([C@H](C)N(C)CCc6ccccc6)[C@H](O)C[C@@]3(C)[C@@H]5CC[C@H]4[C@]2(C)CS1 is 7.70

* * *

Please consider the recorded IC50 for Cholinesterase (Homo sapiens) in what follows.
Numbers only; they are read as nM.

{"columns": ["LINE NOTATION", "REPORTED MEASUREMENT"],
 "data": [
  ["COc1ccccc1CN(C)[C@@H](C)[C@H]1[C@H](O)C[C@@]2(C)[C@@H]3CC[C@H]4[C@]5(C)CSC(C(C)C)=N[C@H]5CC[C@@]45C[C@@]35C(=O)C[C@]12C", 333]
]}

Here is the next item to consider.
The reported Cholinesterase (Homo sapiens) IC50 of COc1ccc(CN(C)[C@@H](C)[C@H]2[C@H](O)C[C@@]3(C)[C@@H]4CC[C@H]5[C@]6(C)CSC(C(C)C)=N[C@H]6CC[C@@]56C[C@@]46C(=O)C[C@]23C)cc1 is 217

* * *

Biological target: Cholinesterase (Homo sapiens, UniProt P06276)
Sequence (P06276 whole entry): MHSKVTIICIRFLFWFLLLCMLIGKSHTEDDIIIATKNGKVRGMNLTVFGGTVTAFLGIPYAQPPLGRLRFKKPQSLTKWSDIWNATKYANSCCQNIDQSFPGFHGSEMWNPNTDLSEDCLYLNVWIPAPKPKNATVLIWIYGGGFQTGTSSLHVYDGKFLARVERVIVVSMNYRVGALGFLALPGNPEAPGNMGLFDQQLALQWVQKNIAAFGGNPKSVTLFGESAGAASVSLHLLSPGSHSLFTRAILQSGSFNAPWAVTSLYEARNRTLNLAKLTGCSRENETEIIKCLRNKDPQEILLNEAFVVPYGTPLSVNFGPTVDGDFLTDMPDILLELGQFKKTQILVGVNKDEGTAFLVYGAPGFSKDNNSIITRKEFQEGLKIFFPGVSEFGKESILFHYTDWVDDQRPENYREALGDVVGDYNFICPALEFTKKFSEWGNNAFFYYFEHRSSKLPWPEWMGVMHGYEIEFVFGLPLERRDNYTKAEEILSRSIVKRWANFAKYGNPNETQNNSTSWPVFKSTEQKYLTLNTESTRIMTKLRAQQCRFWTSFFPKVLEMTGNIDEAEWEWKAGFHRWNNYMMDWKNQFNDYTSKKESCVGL
ASSAY ENDPOINT: pIC50
Give only the number. pIC50 is defined as minus log10 of concentration in molar units.

{"columns": ["LINE NOTATION", "REPORTED MEASUREMENT"],
 "data": [
  ["COc1cccc(CN(C)[C@@H](C)[C@H]2[C@H](O)C[C@@]3(C)[C@@H]4CC[C@H]5[C@]6(C)CSC(C(C)C)=N[C@H]6CC[C@@]56C[C@@]46C(=O)C[C@]23C)c1", 6.32],
  ["CC(C)C1=N[C@H]2CC[C@]34C[C@]35C(=O)C[C@]3(C)[C@@H]([C@H](C)N(C)C)[C@H](O)C[C@@]3(C)[C@@H]5CC[C@H]4[C@]2(C)C=C1", 6.17]
]}

Here is the next item to consider.
The reported Cholinesterase (Homo sapiens, UniProt P06276) pIC50 of CC(C)C1=N[C@H]2CC[C@]34C[C@]35C(=O)C[C@]3(C)[C@@H]([C@H](C)N(C)C)[C@H](O)C[C@@]3(C)[C@@H]5CC[C@H]4[C@]2(C)N1 is 5.14

* * *

Please consider the recorded IC50 for Acetylcholinesterase (Electrophorus electricus) in what follows.
Numbers only; they are read as µM.

A selection of reference data follows.
{"columns": ["LINE NOTATION", "EXPERIMENTAL SYSTEM", "MEASUREMENT UNIT", "IC50"],
 "data": [
  ["CC(C)C1=N[C@H]2CC[C@]34C[C@]35C(=O)C[C@]3(C)[C@@H]([C@H](C)N(C)C(=O)OC(C)(C)C)[C@H](O)C[C@@]3(C)[C@@H]5CC[C@H]4[C@]2(C)CS1", "Acetylcholinesterase (Electrophorus electricus)", "µM", 0.186],
  ["CN[C@@H](C)[C@H]1[C@H](O)C[C@@]2(C)[C@@H]3CC[C@H]4[C@]5(C)CSC(C(C)C)=N[C@H]5CC[C@@]45C[C@@]35C(=O)C[C@]12C", "Acetylcholinesterase (Electrophorus electricus)", "µM", 0.045]
]}

Value of IC50 reported for the molecule C[C@@H]([C@H]1[C@H](O)C[C@@]2(C)[C@@H]3CC[C@H]4[C@]5(C)COC(C(C)(C)F)=N[C@H]5CC[C@@]45C[C@@]35C(=O)C[C@]12C)N(C)C is 0.336

* * *

Molecular target: Acetylcholinesterase (Homo sapiens, UniProt P22303)
Sequence (P22303 whole entry): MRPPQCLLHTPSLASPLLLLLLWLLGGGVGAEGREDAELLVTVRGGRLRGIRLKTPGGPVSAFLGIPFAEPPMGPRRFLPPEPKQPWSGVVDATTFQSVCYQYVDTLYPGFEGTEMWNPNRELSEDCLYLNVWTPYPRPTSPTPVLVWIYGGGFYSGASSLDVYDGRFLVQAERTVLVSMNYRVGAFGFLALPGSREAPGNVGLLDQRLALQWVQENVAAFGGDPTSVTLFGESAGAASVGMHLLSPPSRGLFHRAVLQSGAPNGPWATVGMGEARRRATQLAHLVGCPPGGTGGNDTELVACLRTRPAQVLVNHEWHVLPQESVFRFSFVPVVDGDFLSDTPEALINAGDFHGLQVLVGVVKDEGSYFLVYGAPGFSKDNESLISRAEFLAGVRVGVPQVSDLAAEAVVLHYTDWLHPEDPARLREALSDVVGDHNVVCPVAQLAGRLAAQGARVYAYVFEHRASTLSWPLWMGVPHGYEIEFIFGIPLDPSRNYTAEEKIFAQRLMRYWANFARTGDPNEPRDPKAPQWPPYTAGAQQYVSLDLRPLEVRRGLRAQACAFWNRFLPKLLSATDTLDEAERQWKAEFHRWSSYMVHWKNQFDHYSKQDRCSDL
ASSAY ENDPOINT: IC50 (nM)
Numbers only; they are read as nM.

A selection of reference data follows.
{"columns": ["LINE NOTATION", "MEASUREMENT UNIT", "IC50"],
 "data": [
  ["CC(C)C1=N[C@H]2CC[C@]34C[C@]35C(=O)C[C@]3(C)[C@@H]([C@H](C)N(C)C(=O)c6ccccc6)[C@H](O)C[C@@]3(C)[C@@H]5CC[C@H]4[C@]2(C)CS1", "nM", 43],
  ["CC(C)C1=N[C@H]2CC[C@]34C[C@]35C(=O)C[C@]3(C)[C@@H]([C@H](C)N(C)C)[C@H](O)C[C@@]3(C)[C@@H]5CC[C@H]4[C@]2(C)C=C1", "nM", 25],
  ["CC(C)C1=N[C@H]2CC[C@]34C[C@]35C(=O)C[C@]3(C)[C@@H]([C@H](C)N(C)CCCN6C(=O)c7ccccc7C6=O)[C@H](O)C[C@@]3(C)[C@@H]5CC[C@H]4[C@]2(C)CS1", "nM", 14],
  ["COc1ccccc1CN(C)[C@@H](C)[C@H]1[C@H](O)C[C@@]2(C)[C@@H]3CC[C@H]4[C@]5(C)CSC(C(C)C)=N[C@H]5CC[C@@]45C[C@@]35C(=O)C[C@]12C", "nM", 6]
]}

Value of IC50 reported for the compound CC(C)C1=N[C@H]2CC[C@]34C[C@]35C(=O)C[C@]3(C)[C@@H]([C@H](C)N(C)CCCc6ccccc6)[C@H](O)C[C@@]3(C)[C@@H]5CC[C@H]4[C@]2(C)CS1 is 76

Value of IC50 reported for the compound CC(C)C1=N[C@H]2CC[C@]34C[C@]35C(=O)C[C@]3(C)[C@@H]([C@H](C)N(C)C)[C@H](O)C[C@@]3(C)[C@@H]5CC[C@H]4[C@]2(C)CS1 is 60

Value of IC50 reported for the compound CN[C@@H](C)[C@H]1[C@H](O)C[C@@]2(C)[C@@H]3CC[C@H]4[C@]5(C)CSC(C(C)C)=N[C@H]5CC[C@@]45C[C@@]35C(=O)C[C@]12C is 76

Value of IC50 reported for the compound CC(C)C1=N[C@H]2CC[C@]34C[C@]35C(=O)C[C@]3(C)[C@@H]([C@H](C)N(C)Cc6ccccc6)[C@H](O)C[C@@]3(C)[C@@H]5CC[C@H]4[C@]2(C)CS1 is 7

Value of IC50 reported for the compound COc1ccc(CN(C)[C@@H](C)[C@H]2[C@H](O)C[C@@]3(C)[C@@H]4CC[C@H]5[C@]6(C)CSC(C(C)C)=N[C@H]6CC[C@@]56C[C@@]46C(=O)C[C@]23C)cc1 is 9

* * *

Please consider the recorded IC50 for Acetylcholinesterase (Electrophorus electricus, UniProt O42275) in what follows.
Numbers only; they are read as nM.

A selection of reference data follows.
{"columns": ["LINE NOTATION", "EXPERIMENTAL SYSTEM", "IC50, nM"],
 "data": [
  ["CC(C)C1=N[C@H]2CC[C@]34C[C@]35C(=O)C[C@]3(C)[C@@H]([C@H](C)N(C)Cc6ccccc6C(F)(F)F)[C@H](O)C[C@@]3(C)[C@@H]5CC[C@H]4[C@]2(C)CS1", "Acetylcholinesterase (Electrophorus electricus, UniProt O42275)", 24],
  ["CC(=O)N(C)[C@@H](C)[C@H]1[C@H](O)C[C@@]2(C)[C@@H]3CC[C@H]4[C@]5(C)CSC(C(C)C)=N[C@H]5CC[C@@]45C[C@@]35C(=O)C[C@]12C", "Acetylcholinesterase (Electrophorus electricus, UniProt O42275)", 139]
]}

Value of IC50 reported for the molecule CC(C)C1=N[C@H]2CC[C@]34C[C@]35C(=O)C[C@]3(C)[C@@H]([C@H](C)N(C)Cc6ccc(C(F)(F)F)cc6)[C@H](O)C[C@@]3(C)[C@@H]5CC[C@H]4[C@]2(C)CS1 is 7
